run.description: in vivo
recorded.conditions: male, Sprague-Dawley, rat, po, 2.15 g/kg, MRT(0–∞)
value.type: MRT inf (h)
Provide only the numeric value, understood in h.

Can you look up the measured MRT inf of C=C[C@H]1[C@H](O[C@@H]2O[C@H](CO)[C@@H](O)[C@H](O)[C@H]2O)OC=C2C(=O)OCC[C@H]21 [Sweroside, sweroside] for me?
7.5

---

run.description: Pharmacokinetic study in rats after oral administration of SYD extract and its single and combined TCM extracts (UPLC-MS/MS of plasma)
recorded.conditions: male, Sprague-Dawley, rat, plasma, po, 0.68 g/kg, MRT(0–t), rat plasma, oral GU extract 0.68 g/kg, n = 6
value.type: MRT last (h)
Field: numeric (h). Do not append units.

So what's the measured MRT last for this one? O=C1C[C@@H](c2ccc(O[C@@H]3O[C@H](CO)[C@@H](O)[C@H](O)[C@H]3O)cc2)Oc2cc(O)ccc21 [Liquiritin, liquiritin]
1.16

---

run.description: Pharmacokinetic study in rats after oral administration of SYD extract and its single and combined TCM extracts (UPLC-MS/MS of plasma)
recorded.conditions: male, Sprague-Dawley, rat, plasma, po, 3.29 g·kg^−1 (extract), Tmax, rat plasma, oral LJ + AS extract, n = 6
Tmax values, listed per item
Supply the numeric figure in h, leaving out any unit text.

| given.smiles | Tmax, h |
| --- | --- |
| O=C(/C=C/c1ccc(O)c(O)c1)O[C@@H]1C[C@](O)(C(=O)O)C[C@@H](O)[C@H]1O | 1.36 |

API: the following record is the query input.
Can you share its Tmax? I mean this compound: COC(=O)C1=CO[C@@H](O[C@@H]2O[C@H](CO)[C@@H](O)[C@H](O)[C@H]2O)[C@@H]2[C@@H](C)[C@@H](O)C[C@H]12
1.33

---

run.description: Pharmacokinetic study in rats after oral administration of SYD extract and its single and combined TCM extracts (UPLC-MS/MS of plasma)
recorded.conditions: male, Sprague-Dawley, rat, plasma, po, 2.49 g/kg, t1/2, rat plasma, oral SN extract 2.49 g/kg, n = 6
value.type: half-life (h)
Reply with just the number (in h).

| compound | obs.value |
| --- | --- |
| C[C@]1(OC(=O)/C=C/c2ccccc2)C[C@@H](O)[C@]2(O)C=CO[C@@H](O[C@@H]3O[C@H](CO)[C@@H](O)[C@H](O)[C@H]3O)[C@@H]21 [Harpagoside, harpagoside] | 3.34 |

Now turn to the next compound.
Given COc1ccc(CCO[C@@H]2O[C@H](CO[C@@H]3OC[C@H](O)[C@H](O)[C@H]3O)[C@@H](OC(=O)/C=C/c3ccc(O)c(OC)c3)[C@H](O[C@@H]3O[C@@H](C)[C@H](O)[C@@H](O)[C@H]3O)[C@H]2O)cc1O [Angoroside C, angoroside C] , state its recorded half-life.
10.7

---

A collection of compounds and their measured Tmax
run.description: Pharmacokinetic study in rats after oral administration of SYD extract and its single and combined TCM extracts (UPLC-MS/MS of plasma)
recorded.conditions: male, Sprague-Dawley, rat, plasma, po, 2.15 g/kg, Tmax, rat plasma, oral LJ extract 2.15 g/kg, n = 6
# output: bare number, implied unit h

| given.smiles | value.unit | Tmax |
| --- | --- | --- |
| O=C(/C=C/c1ccc(O)c(O)c1)O[C@@H]1C[C@](O)(C(=O)O)C[C@@H](O)[C@H]1O | h | 1.11 |

Shifting focus to the compound that follows.
What value of Tmax has been recorded for this entry: COC(=O)C1=CO[C@@H](O[C@@H]2O[C@H](CO)[C@@H](O)[C@H](O)[C@H]2O)[C@@H]2[C@@H](C)[C@@H](O)C[C@H]12
1.25

---

Entries and their Cmax
run.description: Pharmacokinetic study in rats after oral administration of SYD extract and its single and combined TCM extracts (UPLC-MS/MS of plasma)
recorded.conditions: male, Sprague-Dawley, rat, plasma, po, 3.98 g·kg^−1 extract, Cmax, rat plasma, oral SN + AS extract, n = 6
Write the figure, then the unit, nothing else.

| compound | Cmax |
| --- | --- |
| C[C@]1(OC(=O)/C=C/c2ccccc2)C[C@@H](O)[C@]2(O)C=CO[C@@H](O[C@@H]3O[C@H](CO)[C@@H](O)[C@H](O)[C@H]3O)[C@@H]21 [Harpagoside, harpagoside] | 70 ng/mL |

// below: Cmax requested for another compound
What value of Cmax has been recorded for this entry: COc1ccc(CCO[C@@H]2O[C@H](CO[C@@H]3OC[C@H](O)[C@H](O)[C@H]3O)[C@@H](OC(=O)/C=C/c3ccc(O)c(OC)c3)[C@H](O[C@@H]3O[C@@H](C)[C@H](O)[C@@H](O)[C@H]3O)[C@H]2O)cc1O [Angoroside C, angoroside C]
400 ng/mL

---

run.description: Pharmacokinetic study in rats after oral administration of SYD extract and its single and combined TCM extracts (UPLC-MS/MS of plasma)
recorded.conditions: male, Sprague-Dawley, rat, plasma, po, 5.43 g/kg, AUC(0–∞), rat plasma, oral LJ + SN + AS extract 5.43 g/kg, n = 6
# AUC(0-inf) values compiled below
Write the number in ng·h/mL without appending the unit.

// query AUC(0-inf) value for entry COC(=O)C1=CO[C@@H](O[C@@H]2O[C@H](CO)[C@@H](O)[C@H](O)[C@H]2O)[C@@H]2[C@@H](C)[C@@H](O)C[C@H]12
1180

Request the reported AUC(0-inf) associated with O=C(/C=C/c1ccc(O)c(O)c1)O[C@@H]1C[C@](O)(C(=O)O)C[C@@H](O)[C@H]1O
3690

Value lookup for AUC(0-inf); key = C[C@]1(OC(=O)/C=C/c2ccccc2)C[C@@H](O)[C@]2(O)C=CO[C@@H](O[C@@H]3O[C@H](CO)[C@@H](O)[C@H](O)[C@H]3O)[C@@H]21 [Harpagoside, harpagoside]
110

# input compound: COc1ccc(CCO[C@@H]2O[C@H](CO[C@@H]3OC[C@H](O)[C@H](O)[C@H]3O)[C@@H](OC(=O)/C=C/c3ccc(O)c(OC)c3)[C@H](O[C@@H]3O[C@@H](C)[C@H](O)[C@@H](O)[C@H]3O)[C@H]2O)cc1O [Angoroside C, angoroside C] ; wanted: its AUC(0-inf)
200

---

Here the recorded AUC(0-t) is given for each entry.
run.description: Pharmacokinetic study in rats after oral administration of SYD extract and its single and combined TCM extracts (UPLC-MS/MS of plasma)
recorded.conditions: male, Sprague-Dawley, rat, plasma, po, 2.49 g/kg, AUC(0–t), rat plasma, oral SN extract 2.49 g/kg, n = 6
Report the value in ng·h/mL with no unit label.

| molecule | obs.value |
| --- | --- |
| COc1ccc(CCO[C@@H]2O[C@H](CO[C@@H]3OC[C@H](O)[C@H](O)[C@H]3O)[C@@H](OC(=O)/C=C/c3ccc(O)c(OC)c3)[C@H](O[C@@H]3O[C@@H](C)[C@H](O)[C@@H](O)[C@H]3O)[C@H]2O)cc1O [Angoroside C, angoroside C] | 90 |

// switching to the query molecule
Given the entry C[C@]1(OC(=O)/C=C/c2ccccc2)C[C@@H](O)[C@]2(O)C=CO[C@@H](O[C@@H]3O[C@H](CO)[C@@H](O)[C@H](O)[C@H]3O)[C@@H]21 [Harpagoside, harpagoside] , report its measured AUC(0-t).
310

---

MRT last by entry:
run.description: Pharmacokinetic study in rats after oral administration of SYD extract and its single and combined TCM extracts (UPLC-MS/MS of plasma)
recorded.conditions: male, Sprague-Dawley, rat, plasma, po, 5.43 g/kg, MRT(0–t), rat plasma, oral LJ + SN + AS extract 5.43 g/kg, n = 6
Number in h, nothing else.

| molecule | MRT last (h) |
| --- | --- |
| COc1ccc(CCO[C@@H]2O[C@H](CO[C@@H]3OC[C@H](O)[C@H](O)[C@H]3O)[C@@H](OC(=O)/C=C/c3ccc(O)c(OC)c3)[C@H](O[C@@H]3O[C@@H](C)[C@H](O)[C@@H](O)[C@H]3O)[C@H]2O)cc1O [Angoroside C, angoroside C] | 3.05 |
| COC(=O)C1=CO[C@@H](O[C@@H]2O[C@H](CO)[C@@H](O)[C@H](O)[C@H]2O)[C@@H]2[C@@H](C)[C@@H](O)C[C@H]12 [Loganin, loganin] | 2.5 |
| O=C(/C=C/c1ccc(O)c(O)c1)O[C@@H]1C[C@](O)(C(=O)O)C[C@@H](O)[C@H]1O [Chlorogenic acid, chlorogenic acid] | 3.19 |

Continue with the molecule presented below.
Which MRT last value is on record for C[C@]1(OC(=O)/C=C/c2ccccc2)C[C@@H](O)[C@]2(O)C=CO[C@@H](O[C@@H]3O[C@H](CO)[C@@H](O)[C@H](O)[C@H]3O)[C@@H]21 [Harpagoside, harpagoside] ?
3.16
